- measuredTarget: Xanthine dehydrogenase/oxidase (Bos taurus, UniProt P80457)
- Sequence (P80457 whole entry): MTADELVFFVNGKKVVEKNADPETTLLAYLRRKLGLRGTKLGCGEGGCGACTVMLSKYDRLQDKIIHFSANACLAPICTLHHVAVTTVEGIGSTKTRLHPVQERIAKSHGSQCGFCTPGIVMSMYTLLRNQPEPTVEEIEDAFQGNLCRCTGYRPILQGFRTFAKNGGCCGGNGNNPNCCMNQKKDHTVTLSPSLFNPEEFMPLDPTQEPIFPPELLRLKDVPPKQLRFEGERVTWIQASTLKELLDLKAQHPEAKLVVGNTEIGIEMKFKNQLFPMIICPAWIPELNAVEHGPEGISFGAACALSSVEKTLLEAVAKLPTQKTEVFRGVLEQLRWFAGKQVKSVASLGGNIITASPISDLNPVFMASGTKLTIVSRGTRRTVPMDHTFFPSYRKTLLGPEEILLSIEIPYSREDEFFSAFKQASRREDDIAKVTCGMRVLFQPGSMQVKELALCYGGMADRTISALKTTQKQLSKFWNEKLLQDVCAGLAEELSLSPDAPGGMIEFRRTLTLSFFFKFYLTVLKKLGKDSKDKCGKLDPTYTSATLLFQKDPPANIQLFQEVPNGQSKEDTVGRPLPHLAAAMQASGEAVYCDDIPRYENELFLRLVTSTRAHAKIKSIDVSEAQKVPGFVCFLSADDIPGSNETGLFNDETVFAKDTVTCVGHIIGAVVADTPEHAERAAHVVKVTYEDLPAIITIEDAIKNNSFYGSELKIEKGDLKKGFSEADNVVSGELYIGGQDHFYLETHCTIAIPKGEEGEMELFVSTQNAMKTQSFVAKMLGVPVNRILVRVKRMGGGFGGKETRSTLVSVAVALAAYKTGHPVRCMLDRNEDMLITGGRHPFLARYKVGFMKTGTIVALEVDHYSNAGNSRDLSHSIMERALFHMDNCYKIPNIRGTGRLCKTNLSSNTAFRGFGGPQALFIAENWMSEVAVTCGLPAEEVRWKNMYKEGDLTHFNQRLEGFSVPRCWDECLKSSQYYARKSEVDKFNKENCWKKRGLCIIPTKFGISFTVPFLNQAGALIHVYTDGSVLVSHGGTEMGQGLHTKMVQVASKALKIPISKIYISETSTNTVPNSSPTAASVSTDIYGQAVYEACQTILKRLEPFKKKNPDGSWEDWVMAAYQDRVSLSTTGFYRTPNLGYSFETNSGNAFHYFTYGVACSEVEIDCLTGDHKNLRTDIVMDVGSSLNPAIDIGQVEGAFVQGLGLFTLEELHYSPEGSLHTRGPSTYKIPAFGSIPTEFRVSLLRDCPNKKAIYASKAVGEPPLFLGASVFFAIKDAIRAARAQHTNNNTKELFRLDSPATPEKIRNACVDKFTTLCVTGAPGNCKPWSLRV
- testDetails: Inhibition of bovine xanthine oxidase assessed as reduction in uric acid production using xanthine as substrate preincubated for 10 mins followed by substrate addition by spectrophotometric analysis
endpoint: pIC50
Note: pIC50 values are expressed as the negative base-10 logarithm of concentration in M.

Examples with their reported pIC50 follow.
COCCOc1ccc(-n2cc(C(=O)O)nn2)cc1C#N
4.58
N#Cc1cccc(COc2ccc(-n3cc(C(=O)O)nn3)cc2C#N)c1
5.47
CCC(C)Oc1ccc(-n2cc(C(=O)O)nn2)cc1C#N (configuration not stated)
5.40

In: Indicate the recorded pIC50 value for this compound: "N#Cc1ccc(COc2ccc(-n3cc(C(=O)O)nn3)cc2C#N)cc1"
Out: 6.07

In: Give the reported value of pIC50 for this record: "CC(C)COc1ccc(-n2cc(C(=O)O)nn2)cc1C#N"
Out: 5.49

In: Look up and report measured pIC50 for this entry: "N#Cc1cc(-n2cc(C(=O)O)nn2)ccc1OC1CCCC1"
Out: 5.97

In: Note pIC50 for the compound shown: "CC(C)Oc1ccc(-n2cc(C(=O)O)nn2)cc1C#N"
Out: 5.20

In: Answer with the recorded pIC50 for the compound listed here: "CCCCCCCOc1ccc(-n2cc(C(=O)O)nn2)cc1C#N"
Out: 5.83

In: Specify reported pIC50 for the compound shown: "N#Cc1cc(-n2cc(C(=O)O)nn2)ccc1OCc1ccccc1"
Out: 5.62

In: Report pIC50 for "N#Cc1cc(-n2cc(C(=O)O)nn2)ccc1OCc1ccc(Cl)cc1"
Out: 6.03

In: Please look at this compound and report its pIC50: "COc1ccc(COc2ccc(-n3cc(C(=O)O)nn3)cc2C#N)cc1"
Out: 6.14

In: Please supply the value of reported pIC50 for the item "CCCCCOc1ccc(-n2cc(C(=O)O)nn2)cc1C#N"
Out: 5.55

---

- measuredTarget: Xanthine dehydrogenase/oxidase (Bos taurus, UniProt P80457)
- testDetails: Inhibition of bovine xanthine oxidase assessed as reduction in uric acid production using xanthine as substrate preincubated for 10 mins followed by substrate addition by spectrophotometric analysis
endpoint: pIC50
Conceptually, pIC50 converts a concentration in mol/L into minus its log10.

Would you please look over these solved cases?
CC(C)CCOc1ccc(-n2cc(C(=O)O)nn2)cc1C#N
5.79
CCCCCCOc1ccc(-n2cc(C(=O)O)nn2)cc1C#N
5.82
CCCCCCCCOc1ccc(-n2cc(C(=O)O)nn2)cc1C#N
6.20

In: Tell me pIC50 reported for "CCCCOc1ccc(-n2cc(C(=O)O)nn2)cc1C#N"
Out: 5.30

In: Please indicate pIC50 recorded for "COc1ccccc1COc1ccc(-n2cc(C(=O)O)nn2)cc1C#N"
Out: 6.12

In: Provide only the value of recorded pIC50 for "COc1cccc(COc2ccc(-n3cc(C(=O)O)nn3)cc2C#N)c1"
Out: 6.68
